Give EC50 for every item shown.
Target: hPPAR delta (Homo sapiens, UniProt Q03181)
Construct: expressed in transfected cells; host or cells: CV-1 cells
Sequence (Q03181 211-439 limits assumed): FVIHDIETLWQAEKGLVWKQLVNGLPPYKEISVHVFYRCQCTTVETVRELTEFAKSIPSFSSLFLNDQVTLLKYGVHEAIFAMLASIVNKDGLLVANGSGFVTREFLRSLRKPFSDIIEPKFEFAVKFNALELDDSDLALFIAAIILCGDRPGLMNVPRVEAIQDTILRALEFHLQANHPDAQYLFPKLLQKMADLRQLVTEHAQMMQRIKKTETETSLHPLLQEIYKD
Test: Transient transfection (transactivation) assay in CV-1 cells, GAL4-PPAR LBD chimera, SPAP reporter
Assay type: cell-based
Conditions: read-out: EC50 μM HPPARδ

Example cases with answers are listed next.
Form field EC50, entry `Cc1cc(CNC(=O)c2cc(-c3ccc(-c4ccncc4)cc3)n(C)n2)ccc1OC(C)(C)C(=O)O` : > 25 µM

Form field EC50, entry `Cc1cc(CNC(=O)c2cc(-c3ccc(C(C)C)cc3)n(C)n2)ccc1OC(C)(C)C(=O)O` : 4.02 µM

Form field EC50, entry `Cc1cc(CNC(=O)c2cc(-c3ccc(C(C)(C)C)cc3)[nH]n2)ccc1OC(C)(C)C(=O)O` : > 25 µM

With those in mind, consider the next compound.
Form field EC50, entry `Cc1cc(CNC(=O)Cc2cc(-c3ccc(C(C)(C)C)cc3)n(C)n2)ccc1OC(C)(C)C(=O)O` : > 25 µM

Reference source: patent US20080021030A1
